B1: E3 ubiquitin-protein ligase NEDD4-like, residues 539 to 589; numbered along this chain, Q96PU5 (parent)
chain: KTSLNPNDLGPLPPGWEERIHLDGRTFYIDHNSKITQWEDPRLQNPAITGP

variants of: B1; assay: abundance fitness (aPCA) (normalised: wild type 0, dead -1); higher = more abundant; growth selection in yeast, the domain comes from the species named; details: Homo sapiens

Variant spec: L12T
abundance fitness: -0.427

Variant spec: D8Q
abundance fitness: -0.189

Variant spec: W38N
abundance fitness: -0.059

Variant spec: L43F
abundance fitness: -0.104

Variant spec: D30C
abundance fitness: -0.166

Variant spec: N45F
abundance fitness: -0.634

Variant spec: N7V
abundance fitness: -0.114

Variant spec: E18C
abundance fitness: -0.252

Variant spec: N45V
abundance fitness: -0.106

Variant spec: H31T
abundance fitness: 0.065

Variant spec: Q44E
abundance fitness: 0.074

Variant spec: T26I
abundance fitness: -0.131

Variant spec: D40H
abundance fitness: -0.16

Variant spec: H31M
abundance fitness: 0

Variant spec: T49R
abundance fitness: -0.042

Variant spec: L4K
abundance fitness: 0.116

Variant spec: E39R
abundance fitness: -0.208

Variant spec: H31D
abundance fitness: -0.601

Variant spec: T49G
abundance fitness: -0.045

Variant spec: Q37A
abundance fitness: -0.443

Variant spec: G15A
abundance fitness: -0.361

Variant spec: P14R
abundance fitness: -0.085
